Test system: Saccharomyces cerevisiae;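 note: PSI is a weighted mean of sequencing reads over stability bins, variants kept only with over 10 reads, mCherry proximal and sfGFP distal, peptide attached via GGGS linker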
Assay: protein stability index of tFT-peptide fusion (C-terminal peptide) (PSI (0-1 scale)); higher = more stable (slower turnover)
Conditions: genetic background: wild type; temperature: 30 C
Assign y to entries whose protein stability index meets or exceeds 0.7; assign n to the rest.

Item "TVFGLLHALLYS" with protein stability index of 0.7 or above? y

And for "YIRSYRITKREE" ? n

And for "KLNMLLYNNQEK" ? n

And for "TPTFALIHPTET" ? y

And for "LLLPPPLSASSS" ? n

And for "CGWMVSAGRLGG" ? n

And for "WWLARNPLLSRL" ? y

And for "NHSTGLYAARLR" ? y

And for "PPRPTPYPPLPP" ? n

And for "ARRGGRKRPGAV" ? n

And for "SPRSSPLPSPPP" ? y

And for "APPPPLPAPQLR" ? n

And for "LPPLPPRVLFNL" ? n

And for "SPETSSILLLSF" ? n

And for "AVSCGLGAGSSA" ? n

And for "AGGIAVYFGEEE" ? y

And for "SFNVFKINSITV" ? n

And for "GAGGGSGGGQPG" ? n

And for "PPPPPPPDPVPP" ? n

And for "IVRLGRWLGLSC" ? n

And for "VSRKEQYPEAQE" ? n

And for "RTLEIYRGLTNE" ? n

And for "CDRVAQWTYPDA" ? y

And for "PLPRSPRPSAPP" ? n

And for "FGVSLWPGFLYL" ? n

And for "SPSFDLLFSPFD" ? y

And for "PSAPFLPSPPPV" ? n

And for "GGLRGRPPASHR" ? y

And for "SLSPTPVAPPLN" ? n

And for "RTFPYSALSFVS" ? n

And for "RKKPRKLRETDN" ? n

And for "GTDVFTQAVRNC" ? n

And for "ILTDFELLPVYR" ? y

And for "LSSLHFRFLSAG" ? n

And for "VYVRYYVRVVVI" ? n

And for "PPSHPLSPLSRL" ? y

And for "DASELLGRPVVL" ? y

And for "NRNVLKTRKKST" ? n

And for "VGVDCGVLWCLF" ? n

And for "IFSPHRPAVALV" ? n

And for "EKKKRRASREDS" ? n

And for "IRLFAPVVFLPL" ? n

And for "SLPRPYPQKVTG" ? n

And for "ILDRRPRTFALV" ? n

And for "CPFLSISSNCSM" ? n

And for "LRGGGGIVVGVV" ? n

And for "CLCFFLICFILF" ? n

And for "GWFVGLVSRSLH" ? n

And for "YFGGRGARGRER" ? n
